# Test system: 653999-131-R-J2-PDC complex spheroids, growth inhibition;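 also: spheroids exposed to the agents for seven days before the readout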
# assay_overview: Anticancer human tumor 653999-131-R-J2-PDC patient-derived lung adenocarcinoma cell line growth inhibition [RAS]
# applied_conditions: second compound 0.1 µM; first compound 3.16 µM; hits give low values
# note: exactly 60% is not below, so it is not met; use met for viability, T/C strictly under it

Lab note: viability, T/C threshold 60%. Does this compound come in strictly under it? CC(=O)OC12COC1CC(O)C1(C)C(=O)C(O)C3=C(C)C(OC(=O)C(O)C(NC(=O)OC(C)(C)C)c4ccccc4)CC(O)(C(OC(=O)c4ccccc4)C21)C3(C)C (stereo not drawn) + C#Cc1c(F)ccc2cc(O)cc(-c3ncc4c(N5CC6CCC(C5)N6)nc(OCC56CCCN5CC(F)C6)nc4c3F)c12 met

Lab note: viability, T/C threshold 60%. Does this compound come in strictly under it? CC(Nc1ccc2c(c1)OCCn1cc(N3C(=O)OCC3C(F)F)nc1-2)C(N)=O (stereo not drawn) + C#Cc1c(F)ccc2cc(O)cc(-c3ncc4c(N5CC6CCC(C5)N6)nc(OCC56CCCN5CC(F)C6)nc4c3F)c12 met

Lab note: viability, T/C threshold 60%. Does this compound come in strictly under it? CC1(O)CCCC1n1c(=O)c(C(F)F)cc2cnc(NC3CCN(S(C)(=O)=O)CC3)nc21 (stereo not drawn) + C=CC(=O)N1CCN(c2nc(OCC3CCCN3C)nc3c(F)c(-c4nc(N)cc(C)c4C(F)(F)F)c(Cl)cc23)C(C)C1 not met

Lab note: viability, T/C threshold 60%. Does this compound come in strictly under it? CC(C)NCC(C(=O)N1CCN(c2ncnc3c2C(C)CC3O)CC1)c1ccc(Cl)cc1 (stereo not drawn) + C#Cc1c(F)ccc2cc(O)cc(-c3ncc4c(N5CC6CCC(C5)N6)nc(OCC56CCCN5CC(F)C6)nc4c3F)c12 met

Lab note: viability, T/C threshold 60%. Does this compound come in strictly under it? NC1c2ccccc2OC12CCN(c1cnc3c(N4CCCc5ncccc54)n[nH]c3n1)CC2 (stereo not drawn) + C=CC(=O)N1CCN(c2nc(OCC3CCCN3C)nc3c(F)c(-c4nc(N)cc(C)c4C(F)(F)F)c(Cl)cc23)C(C)C1 not met

Lab note: viability, T/C threshold 60%. Does this compound come in strictly under it? CCC(CC)c1cc(NC2CCC(N)C2)n2nccc2n1 (stereo not drawn) + C#Cc1c(F)ccc2cc(O)cc(-c3ncc4c(N5CC6CCC(C5)N6)nc(OCC56CCCN5CC(F)C6)nc4c3F)c12 met

Lab note: viability, T/C threshold 60%. Does this compound come in strictly under it? C[C@@H](NC(=O)c1ncnc(N)c1Cl)c1ncc(C(=O)Nc2cc(C(F)(F)F)c(Cl)cn2)s1 + C#Cc1c(F)ccc2cc(O)cc(-c3ncc4c(N5CC6CCC(C5)N6)nc(OCC56CCCN5CC(F)C6)nc4c3F)c12 not met

Lab note: viability, T/C threshold 60%. Does this compound come in strictly under it? CC(=O)OC12COC1CC(O)C1(C)C(=O)C(O)C3=C(C)C(OC(=O)C(O)C(NC(=O)OC(C)(C)C)c4ccccc4)CC(O)(C(OC(=O)c4ccccc4)C21)C3(C)C (stereo not drawn) + C=CC(=O)N1CCN(c2nc(OCC3CCCN3C)nc3c(F)c(-c4nc(N)cc(C)c4C(F)(F)F)c(Cl)cc23)C(C)C1 not met

Lab note: viability, T/C threshold 60%. Does this compound come in strictly under it? Cc1nc(N2CCC3(CC2)COC(C)C3N)c(CO)nc1Sc1ccnc(N)c1Cl (stereo not drawn) + C=CC(=O)N1CCN(c2nc(OCC3CCCN3C)nc3c(F)c(-c4nc(N)cc(C)c4C(F)(F)F)c(Cl)cc23)C(C)C1 not met

Lab note: viability, T/C threshold 60%. Does this compound come in strictly under it? Cc1nc(N2CCC3(CC2)COC(C)C3N)c(CO)nc1Sc1ccnc(N)c1Cl (stereo not drawn) + C#Cc1c(F)ccc2cc(O)cc(-c3ncc4c(N5CC6CCC(C5)N6)nc(OCC56CCCN5CC(F)C6)nc4c3F)c12 not met

Lab note: viability, T/C threshold 60%. Does this compound come in strictly under it? CC(Nc1ccc2c(c1)OCCn1cc(N3C(=O)OCC3C(F)F)nc1-2)C(N)=O (stereo not drawn) + C=CC(=O)N1CCN(c2nc(OCC3CCCN3C)nc3c(F)c(-c4nc(N)cc(C)c4C(F)(F)F)c(Cl)cc23)C(C)C1 met

Lab note: viability, T/C threshold 60%. Does this compound come in strictly under it? C[C@@H](NC(=O)c1ncnc(N)c1Cl)c1ncc(C(=O)Nc2cc(C(F)(F)F)c(Cl)cn2)s1 + C=CC(=O)N1CCN(c2nc(OCC3CCCN3C)nc3c(F)c(-c4nc(N)cc(C)c4C(F)(F)F)c(Cl)cc23)C(C)C1 not met
